Numbers sourced from the supplement of paper PMC11061612.

Test system: U-87-MG (Glioblastoma);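 also: after 72 h of two-drug dosing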
testDescription: Bliss excess, mean over the matrix (fraction); higher = more synergy
observationType: Bliss excess
The reply should be a number, written without any unit.

>  <compound>
CN(CCO)CC[C@H](CSc1ccccc1)Nc1ccc(S(=O)(=O)NC(=O)c2ccc(N3CCC([C@@H](O)c4ccccc4-c4ccc(Cl)cc4)CC3)cc2)cc1S(=O)(=O)C(F)(F)F [AZD4320] + Cc1cc2ncnn2cc1Nc1ncc2c(n1)n(C1CCOCC1)c(=O)n2C [AZD7648] (first compound max 1 µM, 7x7, partner max 10 µM)

>  <Bliss excess>
-0.0503

$$$$

As a next step, examine the compound that follows.
Provide the documented Bliss excess with U-87-MG (Glioblastoma) as the system for Cn1cnc2c(F)c(Nc3ccc(Br)cc3Cl)c(C(=O)NOCCO)cc21 [Selumetinib] + CCN(CCO)CCCOc1ccc2c(Nc3cc(CC(=O)Nc4cccc(F)c4)[nH]n3)ncnc2c1 [AZD2811] (first compound max 10 µM, 7x7, partner max 1 µM) -0.0443
